The origin of these recorded values is patent US20180230200A1.

ASSAY_SYSTEM: T1, UL130/UL131A co-expressed from MVA in BHK-21 cells (human cytomegalovirus, UniProt P16772 1-214; F5HET4 19-129)
T1 construct: whole, on cells
T1 sequence (P16772 26-214 limits assumed, chain 1 of 2): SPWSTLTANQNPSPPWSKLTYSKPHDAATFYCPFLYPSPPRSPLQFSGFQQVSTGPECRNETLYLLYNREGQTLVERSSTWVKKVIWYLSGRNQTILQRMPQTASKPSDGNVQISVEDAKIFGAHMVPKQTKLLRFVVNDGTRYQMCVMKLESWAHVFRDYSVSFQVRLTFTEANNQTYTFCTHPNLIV
T1 sequence (F5HET4 19-129 limits assumed, chain 2 of 2): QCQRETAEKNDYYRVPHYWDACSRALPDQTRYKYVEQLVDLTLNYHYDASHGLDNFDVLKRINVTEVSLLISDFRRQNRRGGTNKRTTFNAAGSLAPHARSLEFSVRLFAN
TEST_METHOD_NOTES: intracellular FC, MVA-infected BHK-21
RECORDED_METRIC: binding result

| BINDER | OBSERVED_RESULT |
| --- | --- |
| 21E9 (antibody, V domains shown, also called NAb 21E9) VH: QIQLVQSGPELKKPGETVKISCKASGYTFTIYGMNWVKQAPGKGLKWMGWINTYTGEPTYADDFRGRFAFSLETSASTAYLQINNLKNEDTATYFCARKGYYGSSGYFDYWGQGTTLTVSS VL: SIVMTQTPKFLLVSAGDRVTITCKASQSVSNDVSWYQQKPGQSPKLLIYYASNRYTGVPDRFTGSGYGTDFTFTISTVQAEDLAVYFCQQDYSSPWTFGGGTKLEIK | no binding |
| 62-11 (antibody, V domains shown, also called NAb 62-11) VH: QVQLQQPGAELVRPGASVKLSCKASGYTFTSYWMNWVKQRPGQGLEWIGMIDPSDSETHYNQMFKDKATLTVDKSSSTAYMQLSSLTSEDSAVYYCSNGYSSFAYWGQGTLVTVSV VL: DVQMTQTTSSLSASLGDRVTISCSASQGISNYLNWYQQKPDGTVKLLIYDTSSLHSGVPSRFSGSGSGTDYSLTISNLEPEDIATYYCQQYSKLPYTFGGGTKLEIK | no binding |
| 2-80 (antibody, V domains shown, also called NAb 2-80) VH: QIQLVQSGPELKKPGETVKISCKASGYTFTNFGMNWVKQAPGKGLKWMGWINTYTGEPTYADDFKGRFAFSLETSASTASLQINNLKNEDTATYFCARRGDGLYSMDYWGQGTSVTVSS VL: DIVLTQSPASLAVSLGQRATISCRASESIDSYGNSFMYWYQQKPGQPPKLLIYRASNLESGIPARFSGSGSRTDFTLTINPVEADDVATYYCQQSNEDPLTFGAGTKLELK | no binding |
